STUDY TARGET: K-Ras G12D (Homo sapiens, UniProt P01116, G12D)
Construct: expressed in transfected cells; host or cells: 293H cells
Sequence (P01116 whole entry G12D): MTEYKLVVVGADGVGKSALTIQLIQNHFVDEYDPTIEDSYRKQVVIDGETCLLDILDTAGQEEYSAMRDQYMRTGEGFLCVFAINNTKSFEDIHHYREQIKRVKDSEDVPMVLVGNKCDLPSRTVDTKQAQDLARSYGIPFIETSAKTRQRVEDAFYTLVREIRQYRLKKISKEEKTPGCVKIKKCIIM
EXPERIMENT DESCRIPTION: G-LISA Ras activation, 293H cells transfected with G12D mutant
Assay type: cell-based
STATED CONDITIONS: compound 1 hour
Exam item: assign T to entries whose IC50 is below 7 µM and F to entries at or above 7 µM. Note that a value of exactly 7 µM receives F.

Before answering, review these 5 worked examples.
1) Cc1nc(CN)sc1C(=O)Nc1nc(-c2ccc3c(c2)CCC(=O)N3)cs1    F
2) Cc1nn(C(C)C)c(C)c1C(=O)Nc1nc(-c2ccc3c(c2)CCC(=O)N3Cc2cccnc2)cs1    T
3) CCn1cc(C(=O)Nc2nc(-c3ccc4c(c3)CCC(=O)N4)cs2)c(C)n1    T
4) Cc1nn(-c2ccccc2)c(C)c1C(=O)Nc1nc(-c2ccc3c(c2)CCC(=O)N3)cs1    T
5) Cc1nc(C)c(C(=O)Nc2nc(-c3ccc4c(c3)CCC(=O)N4CCN(C)C)cs2)o1    F

hey, is IC50 for Cc1nc(C)c(C(=O)Nc2nc(-c3ccc4c(c3)CCC(=O)N4CC3CCCCC3)cs2)o1 lower than 7 µM or not? F

Please let me know if COC(=O)CCN1C(=O)CCc2cc(-c3csc(NC(=O)c4oc(C)nc4C)n3)ccc21 shows IC50 below 7 µM. T

Measured values drawn from patent US10344026B2 for this set.
